EXPERIMENTAL_SYSTEM: Can2 (Cryptococcus neoformans, UniProt Q3I4V7)
Construct: recombinant, obtained in-house
Sequence (Q3I4V7 1-239): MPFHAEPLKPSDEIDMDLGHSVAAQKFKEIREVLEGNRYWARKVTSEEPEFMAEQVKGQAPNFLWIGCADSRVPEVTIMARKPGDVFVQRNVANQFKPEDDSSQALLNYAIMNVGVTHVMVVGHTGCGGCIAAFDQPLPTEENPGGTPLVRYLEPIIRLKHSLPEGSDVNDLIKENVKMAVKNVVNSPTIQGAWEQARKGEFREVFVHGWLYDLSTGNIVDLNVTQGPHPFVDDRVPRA
Format: biochemical
PROPERTY: pKi
Hey, just a heads up that pKi is the negative log base 10 of the concentration in molar.

Exercise: For NP(=O)(OCCCl)c1ccccc1 (stereo not shown) [compound 9, alkyl phosphonamidate 9] , write its pKi.
Key: 6.22

====

EXPERIMENTAL_SYSTEM: CgNce (Nakaseomyces glabratus, UniProt Q6FTL6)
Construct: gene NCE103
Sequence (Q6FTL6 entry or part of it): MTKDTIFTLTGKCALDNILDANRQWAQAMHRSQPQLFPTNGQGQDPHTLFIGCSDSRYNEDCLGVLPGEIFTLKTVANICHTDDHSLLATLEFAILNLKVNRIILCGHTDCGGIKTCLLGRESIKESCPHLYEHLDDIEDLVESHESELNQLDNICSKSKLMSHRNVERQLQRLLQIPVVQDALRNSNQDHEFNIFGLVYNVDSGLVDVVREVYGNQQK
PROTOCOL: biochemical
Classify: T when Ki is strictly less than 800 nM; F when Ki is not.

Exercise: Hi there! Is Ki for CCCCOP(N)(=O)c1ccccc1 (stereo not shown) [compound 7, alkyl phosphonamidate 7] below 800 nM, do you know?
Key: F

Exercise: Hi there! Is Ki for COP(N)(=O)c1ccccc1 (stereo not shown) [compound 3, methyl phosphonamidate 3] below 800 nM, do you know?
Key: T

Exercise: Hi there! Is Ki for CC(C)OP(N)(=O)c1ccccc1 (stereo not shown) [compound 6, isopropyl (6)] below 800 nM, do you know?
Key: T

Exercise: Hi there! Is Ki for CCCOP(N)(=O)c1ccccc1 (stereo not shown) [compound 5, propyl (5)] below 800 nM, do you know?
Key: F

Exercise: Hi there! Is Ki for C#CCOP(N)(=O)c1ccccc1 (stereo not shown) [compound 10, propargyl phosphonamidate 10] below 800 nM, do you know?
Key: F

Exercise: Hi there! Is Ki for NP(=O)(OCCCl)c1ccccc1 (stereo not shown) [compound 9, alkyl phosphonamidate 9] below 800 nM, do you know?
Key: F
